Measured values drawn from ChEMBL document CHEMBL3885881 for this set.

Species: Rattus norvegicus
procedure_details: DrugMatrix - Regimen: Daily Repeat
Format: toxicity, organism-based, Sprague-Dawley
Design: regimen Daily Repeat, gender Male, age 6-8 weeks
test_context: in vivo, ip, 0.5 mg/kg, […], tissue Blood, route intraperitoneal, dose level High, time 14 day, vehicle 100 % SALINE
parameter_measured: ABSOLUTE BASOPHIL
Answer format: number, then unit.

Input: Check the records and state ABSOLUTE BASOPHIL for TRANSPLATIN
Output: 68 cells/µL

====

Species on record: Rattus norvegicus
procedure_details: DrugMatrix - Regimen: Daily Repeat
Format: toxicity, organism-based, Sprague-Dawley
Design: regimen Daily Repeat, gender Male, age 6-8 weeks
test_context: in vivo, iv, 0 mg/kg, 120 h, tissue Blood, dose level Control, time 5 day, vehicle 100 % SALINE
The following molecules are shown together with reported MONOCYTE values.
Your answer should be a plain number; it is taken to be in %.

Input: Tell us which MONOCYTE value is on record for O=c1[nH]c(=O)n([C@H]2C[C@H](O)[C@@H](CO)O2)cc1F
Output: 0.17

More entries:
Input: Supply reported MONOCYTE belonging to this molecule: O=C(O)P(=O)(O)O
Output: 2.33

Input: Identify measured MONOCYTE corresponding to C[N+](C)(C)CCOC(=O)CCC(=O)OCC[N+](C)(C)C.[Cl-].[Cl-] [SUCCINYLCHOLINE CHLORIDE]
Output: 3.5

Input: Quick one: give measured MONOCYTE for COc1cccc2c1C(=O)c1c(O)c3c(c(O)c1C2=O)C[C@@](O)(C(C)=O)C[C@@H]3O[C@H]1C[C@H](N)[C@H](O)[C@H](C)O1
Output: 0.5

Input: Specify reported MONOCYTE for the molecule shown: N=C(N)c1ccc(OCCCCCOc2ccc(C(=N)N)cc2)cc1
Output: 3.5

====

Readings of CREATININE for the listed compounds
Organism: Rattus norvegicus
procedure_details: DrugMatrix - Regimen: Daily Repeat
Format: toxicity, organism-based, Sprague-Dawley
Design: regimen Daily Repeat, gender Male, age 6-8 weeks
test_context: in vivo, po, 0 mg/kg, 120 h, tissue Plasma, route oral GAVAGE, dose level Control, time 5 day, vehicle .5 % CMC
Give just the number in mg/dL; leave the unit off.

Example compounds with recorded CREATININE:
Input: Using known records, supply CREATININE for C#C[C@]1(O)CC[C@H]2[C@@H]3CCC4=CC(=O)CC[C@]4(C)[C@H]3CC[C@@]21C
Output: 0.57

Input: Assign CREATININE to the following record: CCCCC1=NC2(CCCC2)C(=O)N1Cc1ccc(-c2ccccc2-c2nnn[nH]2)cc1
Output: 0.3

Input: Report CREATININE, nothing else, for this compound: COc1cc(OC)c(C(=O)CCCN2CCCC2)c(OC)c1
Output: 0.17

Continuing:
Input: Write down CREATININE measured for item C[C@H]1[C@H](NC(=O)/C(=N\OC(C)(C)C(=O)O)c2csc(N)n2)C(=O)N1S(=O)(=O)O
Output: 0.37

====

Species on record: Rattus norvegicus
procedure_details: DrugMatrix - Regimen: Daily Repeat
Format: toxicity, organism-based, Sprague-Dawley
Set-up: regimen Daily Repeat, gender Male, age 6-8 weeks
test_context: in vivo, po, 0 mg/kg, 72 h, tissue Blood, route oral GAVAGE, dose level Control, time 3 day, […]
Checkbox rule: ABSOLUTE EOSINOPHIL lower than 20 CELLS/uL = Condition met; ABSOLUTE EOSINOPHIL not lower than 20 CELLS/uL = Condition not met.

Here's what some known entries look like.
Input: Identify whether the compound CCCCC(=O)N(Cc1ccc(-c2ccccc2-c2nnn[nH]2)cc1)[C@H](C(=O)O)C(C)C records ABSOLUTE EOSINOPHIL below 20 CELLS/uL.
Output: Condition met

Input: # check: ABSOLUTE EOSINOPHIL < 20 CELLS/uL for CCc1ccc(CCOc2ccc(CC3SC(=O)NC3=O)cc2)nc1 (stereo not given) [PIOGLITAZONE]
Output: Condition not met

Input: Determine whether this compound shows ABSOLUTE EOSINOPHIL lower than 20 CELLS/uL (ties excluded): CC(C)c1c(C(=O)Nc2ccccc2)c(-c2ccccc2)c(-c2ccc(F)cc2)n1CC[C@@H](O)C[C@@H](O)CC(=O)O [ATORVASTATIN]
Output: Condition met

Input: Is 20 CELLS/uL strictly greater than the compound's reported ABSOLUTE EOSINOPHIL? compound: CC(=O)Oc1ccccc1C(=O)O [ASPIRIN]
Output: Condition met

Turning now to a further record.
Input: For ClC(Cl)(Cl)Cl [CARBON TETRACHLORIDE] , is the recorded ABSOLUTE EOSINOPHIL below the cut-off of 20 CELLS/uL?
Output: Condition not met
